src = ChEMBL document CHEMBL1201862

System: SF-295
Assay: NCI tumour cell line growth inhibition, 48 h
Active and inactive are the calls of the source. Rule as the data show it: active = GI50 up to about 1.1 µM and inactive = higher.
ENDPOINT_NAME: GI50

Some molecules with known GI50 results, for comparison:
MOLECULE: COC1/C=C/C(C)C(OC)CC(O)/C=C/C(C)C(C(C)C(OC)C(C)CCC(=O)C(C)C(C/C=C/N(C)C=O)OC)OC(=O)/C=C/C=C(\C)CC(OC)CC2=CC(=O)O[C@@H](C(C)C(OC)C1)[C@H]2O (some centres not stated)
GI50: 0.11 µM (active)
//
MOLECULE: COc1ccc(/C=C2\CCC(CCN(C)C)(C3=CCCC3)C2=O)cc1 (configuration not stated)
GI50: 18.7 µM (inactive)
//
MOLECULE: O=C1CCCCCCCCCCC(=O)C2CCOCCOCCOCCC1Cc1cccc(n1)C2
GI50: 76.7 µM (inactive)
//
MOLECULE: CCOC(=O)c1c(-c2ccc(OC)cc2)ccn1C
GI50: > 10 µM (inactive)
//
MOLECULE: CC(CC(C#N)(c1ccccc1)c1ccccc1)N1CCCCC1 (configuration not stated)
GI50: 20 µM (inactive)

Q. Recall the recorded GI50 for CN(CC1(CO)CCC1)c1cc(Cl)nc(N)n1 with SF-295 and state it.
A. > 100 µM (inactive)

Q. Hello, I am looking for reported GI50 with SF-295 for COC(=O)C(CC(=O)c1c[nH]c2ccccc12)c1c[nH]c2ccccc12 (configuration not stated) . Could you help?
A. > 10 µM (inactive)

Q. // lookup GI50 | system=SF-295 | key= OCC1OC(c2ccccc2)CC1O (configuration not stated)
A. > 100 µM (inactive)

Q. Record lookup: for SF-295, what GI50 belongs to COCOC1C=CCCCC2=CC(C)=C(CC1)O2 (configuration not stated) ?
A. > 100 µM (inactive)

Q. Return GI50 measured with SF-295 given this molecule: CC1=C(C)C1[N+](=O)[O-]
A. > 100 µM (inactive)

Q. Requested read-out GI50, target or system SF-295, entry [O-][S+](Cc1ccccc1)c1ccccc1Cn1cccc1 (configuration not stated)
A. 60.4 µM (inactive)

Q. I'm curious: which GI50 was measured for C=C(C)C(=O)N1c2ccc(OC)cc2CC1C(=O)OCC (configuration not stated) tested on SF-295?
A. > 100 µM (inactive)

Q. # get_value(readout= GI50, system= SF-295) for CC1(CCCO)CCCCCCCCCC(C)(CCCO)C1=O (configuration not stated)
A. > 100 µM (inactive)

Q. Please tell me: GI50 of CNC(=O)c1nc[nH]c1/N=N/N(C)N , system SF-295?
A. > 100 µM (inactive)

Q. Recall the recorded GI50 for Cc1c(NC(=O)CCCl)c(=O)oc2c(C)c3occc(=O)c3cc12 with SF-295 and state it.
A. 33 µM (inactive)

Q. Lab request: please report GI50 under test system SF-295 for COC(NC(N)=O)C(=O)O (configuration not stated)
A. > 100 µM (inactive)

Q. Please tell me: GI50 of Cc1ccc(S(=O)(=O)N2CCSCCSCCSCCSCC2)cc1 , system SF-295?
A. 22.6 µM (inactive)
